Assay Explanation: binders of probe aFST on microarray, primary screen, stem cell growth factor project, biochemical, small-molecule microarray, fluorescence 635/667 (AID 1086);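 note: score merges 667 nm fluorescence with signal-to-noise of each printed compound spot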
Condition Label: higher = more signal
The entries below come with measured composite z-score values attached.
Answer using only a numeral; do not append any unit.

Would you please look over these solved cases?
CCN1C(C)=C(C(=O)OC)[C@@H](c2ccccc2)N2C(=O)[C@@]3(C(=O)OC)O[C@@]12[C@@H]1C(=O)N(c2ccccc2)C(=O)[C@@H]13 0.585
Cc1ccc([C@@H]2CC=C(C(=O)O)[C@H](c3ccccc3)N2S(=O)(=O)c2ccc(C)cc2)cc1 0.549
O=C(NCc1ccccc1)[C@@]1(Cc2ccccc2)COC(c2ccc(OCCCO)cc2)=N1 0.792

# context switch: different compound, same composite z-score
Req: Give the reported value of composite z-score for this record: O=C(N1CCCCC1)[C@@]1(CCS(=O)(=O)c2ccccc2)N=C(c2ccc(OCCCO)cc2)O[C@H]1c1ccccc1
Resp: 1.51

====

The entries below come with measured composite z-score values attached.
Test system: Inhibin beta A chain (activin A)
Assay Explanation: INHBA (activin A) binders on microarrays, primary screen, biochemical, small-molecule microarray, 635 nm fluorescence scan (AID 1107);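 note: mouse activin A protein probed at 4.33 µg/mL on printed slides; score merges bound-protein fluorescence near 667 nm with spot signal-to-noise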
Condition Label: small-molecule microarray binding, higher = more signal
Answer using only a numeral; do not append any unit.

Would you please look over these solved cases?
COCCOC(=O)N1C(=O)[C@@]2(c3cc(C#CCCO)ccc31)[C@H](C(=O)N1CCCCCCC1)[C@H]1C(=O)O[C@H](c3ccccc3)[C@H](c3ccccc3)N1[C@@H]2c1ccc(O)cc1 1.27
C=CC[C@@]1(C(=O)N2CCOCC2)N=C(c2ccc(OCCCO)cc2)O[C@@H]1c1ccccc1 0.437
COCCOC(=O)N1C(=O)[C@@]2(c3cc(C#CC4=CCCCC4)ccc31)[C@H](c1ccc(O)cc1)N1[C@H](c3ccccc3)[C@H](c3ccccc3)OC(=O)[C@H]1[C@@H]2C(=O)N1CCCCCCC1 1.6

Req: Give the reported value of composite z-score for this record: CO[C@H]1COC(=O)[C@@H](Cc2ccccc2)NC(=O)[C@@H](C)COC(=O)CC=C[C@@H]1C
Resp: 1.31

====

Test system: Neuregulin-1 EGF-like domain
Assay Explanation: binders of neuregulin-1 EGF-like domain, primary screen, biochemical, small-molecule microarray, 635 nm fluorescence (AID 1081);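 note: binding of the protein to compounds printed on small-molecule microarray slides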
Condition Label: small-molecule microarray binding, higher = more signal
The entries below come with measured composite z-score values attached.

Would you please look over these solved cases?
Compound	Target Or System	Quantity Name	Result
COc1cc2c(cc1OC)CN(C(=O)[C@@H]1[C@H]3C(=O)O[C@H](c4ccccc4)[C@H](c4ccccc4)N3[C@H](c3ccccc3OCCO)[C@@]13C(=O)Nc1ccccc13)CC2	Neuregulin-1 EGF-like domain	composite z-score	1.18
CO[C@H]1COC(=O)CC=C[C@H](C)[C@@H](OC)COC(=O)CC=C[C@@H]1C	Neuregulin-1 EGF-like domain	composite z-score	0.692
O=C(NCc1ccccc1)c1ccc(Br)cc1[N+](=O)[O-]	Neuregulin-1 EGF-like domain	composite z-score	0.341
CN1C(=O)C2C=CC(C(O)c3ccc(N(C)C)cc3)N(Nc3ccc([N+](=O)[O-])cc3[N+](=O)[O-])C2C1=O (stereo not given)	Neuregulin-1 EGF-like domain	composite z-score	1.31

Req: Give the reported value of composite z-score for this record: O=C1O[C@@H](c2ccccc2)[C@@H](c2ccccc2)N2[C@@H](c3ccc(O)cc3)[C@]3(C(=O)Nc4ccccc43)[C@@H](C(=O)N3CCN(c4ncccn4)CC3)[C@H]12
Resp: 1.25

Req: Give the reported value of composite z-score for this record: COC(=O)c1ccc(C#CC(NP(=O)(c2ccccc2)c2ccccc2)c2ccccc2)cc1 (stereo not given)
Resp: 1.36

Req: Give the reported value of composite z-score for this record: CCCC[C@@H]1C[C@H]1[C@@H](NC(=O)c1cccs1)c1ccc(Cl)cc1
Resp: -0.669

====

Assay Explanation: A549 cell viability effects, profiling panel, calcein-AM fluorescence, 48 h, basal (AID 1162); note: test concentration not given here
Condition Label: higher = more signal
Quantity Name: z-score

Would you please look over these solved cases?
Compound	z-score
CCOC(=O)C[C@H]1[C@H](OC(=O)Cc2ccc3c(c2)OCO3)[C@@H](NC(=O)CC(C)C)c2cc(OCCCO)ccc2N1C(=O)c1ccccc1	2.34
COCCOC(=O)N1C(=O)[C@@]2(c3cc(C#CCNC(N)=O)ccc31)[C@H](c1ccc(OCCO)cc1)N1[C@H](c3ccccc3)[C@H](c3ccccc3)OC(=O)[C@H]1[C@@H]2C(=O)N1CCCCCCC1	0.118
CCN1C(C)=C(C(=O)OC)[C@@H](c2ccccc2)N2C(=O)[C@@]3(C(=O)OC)O[C@@]12[C@@H]1C(=O)CCC[C@@H]13	-0.195
C=CCN(C(=O)C1N(c2ccc(CCO)cc2)C(=O)C2C(C(=O)O)C3C=CC21O3)C(C)(C)C (stereo unspecified)	0.478
C[C@H]1C2[C@H](Cc3ccccc3)NC(=O)[C@]23C(=O)N[C@H](Cc2ccccc2)C(=O)N[C@@H](Cc2ccccc2)C(=O)NC/C=C\C/C=C/C3[C@@H]2O[C@]12C (stereo partly specified)	0.373

# context switch: different compound, same z-score
Req: Give the reported value of z-score for this record: COc1ccc([Si](C)(C)[C@@H]2[C@@H](CCO)O[C@]3(C(=O)N(Cc4ccccc4)c4ccccc43)[C@H]2C)cc1
Resp: -0.617

====

Assay Explanation: binders of probe aHhip on microarray, primary screen, stem cell growth factor project, biochemical, small-molecule microarray, fluorescence 635/667 (AID 1087);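 note: score merges spot fluorescence at 667nm with spot signal to noise ratio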
Condition Label: higher = more signal
Quantity Name: composite z-score
Answer using only a numeral; do not append any unit.

Would you please look over these solved cases?
Molecule	Result
Cc1ccc(S[C@]2(C(=O)O)CC(=O)N(Cc3cc(C(F)(F)F)cc(C(F)(F)F)c3)[C@@H]2c2ccc(CO)cc2I)cc1	0.0373
CO[C@H]1COC(=O)[C@@H](C)COC(=O)[C@H](Cc2ccccc2)NC(=O)CC=C[C@H]1C	0.0216
CC(C)C[C@@H]1NC(=O)[C@H](CC(C)C)NC(=O)[C@@]23C(=O)N[C@@H](Cc4ccccc4)C2[C@H](C)[C@@]2(C)O[C@H]2C3/C=C/CC/C=C/CNC1=O (some centres undefined)	-0.201

# context switch: different molecule, same composite z-score
Req: Give the reported value of composite z-score for this record: CCC1=C2CN(Cc3ccccc3Br)[C@@H]([C@@H](O)Cc3ccccc3)C2C=CCC1 (some centres undefined)
Resp: 0.0881

====

Assay Explanation: modulators of S6 phosphorylation in cells, primary screen, cell-based, A549, cytoblot, luminescence, serum-stimulated (AID 1158);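 note: serum-stimulated A549 lung adenocarcinoma cells; signal is phosphorylated S6 detected by cytoblot immunostaining with HRP secondary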
Condition Label: A549 phospho-S6 cytoblot, 5 h, higher = more signal
The label depends only on z-score: true if it is at least -0.1, false if it is smaller.

Example cases with answers are listed next.
O=C(N1CCCCC1)[C@@]1(CCS(=O)(=O)c2ccccc2)N=C(c2ccc(OCCCO)cc2)O[C@H]1c1ccccc1 true
C=C(CCCC)C(=O)CC[C@@H](OC(=O)c1cccnc1)c1cccc(OCCO)c1 false
CCOC(=O)C[C@H]1[C@H](OC(=O)c2cc3ccccc3oc2=O)[C@@H](NC(=O)c2ccc3ccccc3c2)c2cc(OCCCO)ccc2N1C(=O)c1ccc2ccccc2n1 true
C=CCOC(=O)[C@@H]1[C@H]2C(=O)O[C@H](c3ccccc3)[C@H](c3ccccc3)N2[C@H](c2ccc(OCCOC(=O)[C@H]3C[C@H]4C(=O)N5CCC[C@H]5C(=O)N4[C@H]3c3ccc(O)cc3)cc2)[C@@]12C(=O)Nc1ccccc12 true
COCCOC(=O)N1C(=O)[C@@]2(c3cc(C#CC4=CCCCC4)ccc31)[C@H](c1ccc(O)cc1)N1[C@H](c3ccccc3)[C@H](c3ccccc3)OC(=O)[C@H]1[C@@H]2C(=O)N1CCCCCCC1 false
CO[C@H]1O[C@H](CO)[C@@H](OC(=O)Nc2ccc3c(c2)OCO3)[C@H](OC(=O)Nc2ccccc2)[C@@H]1OC(=O)Nc1ccccc1 true
C=C(COC)/C(=C/C[C@@H](OC(C)=O)c1cccc(OCCO)c1)c1cc(C(=O)OC)ccc1OC false
CCC#CCN(Cc1ccccc1Br)[C@H](/C=C/c1ccccc1)[C@@H](O)Cc1ccccc1 false

Req: Check this compound for z-score at or above -0.1: CC/C=C/C(=O)N(C[C@@H]1CCCO1)[C@@H]1CC(C(=O)NCCO)=C[C@H](Oc2c(I)cc(CO)cc2OC)[C@H]1O
Resp: true

Req: Check this compound for z-score at or above -0.1: COc1cccc([C@@H]2[C@@H](C)CC[C@H]3C(=O)N(C)[C@@H](C(C)C)C(=O)N23)c1
Resp: true

Req: Check this compound for z-score at or above -0.1: O=C1c2ccccc2[C@](Cc2ccccc2I)(C(=O)O)[C@H](c2ccc(CO)cc2)N1C1CCCCC1
Resp: true

Req: Check this compound for z-score at or above -0.1: COC(=O)[C@@]1(Cc2ccccc2)[C@H]2c3cc(C(=O)N4CCCC4)n(CCN4CNCC4=O)c3C[C@H]2CN1C(=O)c1ccccc1
Resp: true

Req: Check this compound for z-score at or above -0.1: Cc1ccc(S[C@]2(C(=O)NCCCN(C)C)CC(=O)N(Cc3ccccc3)[C@@H]2c2ccc(CO)cc2I)cc1
Resp: true
